# tested on: human eEFSec (Homo sapiens)
# Construct: intact full-length, N-terminal 6xHis tag (pET15b, no tag removal described), E. coli Lemo21(DE3); monomer in solution; SeMet form also made for phasing
# Sequence (P57772 1-596): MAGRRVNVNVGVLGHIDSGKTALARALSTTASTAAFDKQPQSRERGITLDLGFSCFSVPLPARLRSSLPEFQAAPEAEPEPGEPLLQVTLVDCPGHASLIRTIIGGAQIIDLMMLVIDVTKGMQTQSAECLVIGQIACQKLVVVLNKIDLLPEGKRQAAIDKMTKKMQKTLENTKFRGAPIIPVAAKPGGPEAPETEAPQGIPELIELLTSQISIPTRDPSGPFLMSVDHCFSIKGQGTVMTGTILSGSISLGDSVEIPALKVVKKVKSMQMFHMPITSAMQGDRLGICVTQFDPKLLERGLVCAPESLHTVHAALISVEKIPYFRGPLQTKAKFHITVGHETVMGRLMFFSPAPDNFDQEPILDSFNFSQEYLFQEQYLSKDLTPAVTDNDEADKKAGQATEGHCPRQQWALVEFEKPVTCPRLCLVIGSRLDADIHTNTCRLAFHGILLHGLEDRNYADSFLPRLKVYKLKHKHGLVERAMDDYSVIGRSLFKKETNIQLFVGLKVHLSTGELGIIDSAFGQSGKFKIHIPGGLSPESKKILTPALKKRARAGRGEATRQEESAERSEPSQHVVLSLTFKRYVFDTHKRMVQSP
# method summary: isothermal titration calorimetry
Record form. Attribute: pKd. Fill in for each entry.
Answers are plain numbers, as −log10 of the molar value.

// worked examples, pKd included
smiles_data=Nc1nc2c(ncn2[C@@H]2O[C@H](COP(=O)(O)OP(=O)(O)OP(O)(O)=S)[C@@H](O)[C@H]2O)c(=O)[nH]1 tested_on="human eEFSec (Homo sapiens)" endpoint_result=6.32
smiles_data=Nc1nc2c(ncn2[C@@H]2O[C@H](COP(=O)(O)OP(=O)(O)OP(=O)(O)O)[C@@H](O)[C@H]2O)c(=O)[nH]1 tested_on="human eEFSec (Homo sapiens)" endpoint_result=5.92
smiles_data=Nc1nc2c(ncn2[C@@H]2O[C@H](COP(=O)(O)OP(=O)(O)O)[C@@H](O)[C@H]2O)c(=O)[nH]1 tested_on="human eEFSec (Homo sapiens)" endpoint_result=6.72
smiles_data=Nc1nc2c(ncn2[C@@H]2O[C@H](COP(=O)(O)OP(=O)(O)NP(=O)(O)O)[C@@H](O)[C@H]2O)c(=O)[nH]1 tested_on="human eEFSec (Homo sapiens)" endpoint_result=5.92

The reported value for Nc1nc(O)c2ncn([C@@H]3O[C@H](COP(=O)(O)OP(=O)(O)C[P+]([O-])(O)O)[C@@H](O)[C@H]3O)c2n1 in terms of pKd is 5.73

Sourced from paper PMC5059743
